test system: L1210 leukemia ip in BDF1 mice, survival T/C; assay: NCI In Vivo Anticancer Drug Screen. Data for tumor model L1210 Leukemia (intraperitoneal) in B6D2F1 (BDF1) mice; conditions: endpoint: mean survival time; dose: 400.0 mg/kg/injection; schedule: Q01DX001 (ip); vehicle: other; higher = longer survival
Inconclusive results and toxic doses are left out.
Overview of recorded T/C for various compounds

CC/C(=N/OC(=O)N(CC)CC)c1ccccc1: 93 % of control
CN(c1ccccc1)[N+](=O)[O-]: 97 % of control
CCN(CC)c1ccc(N=C2C=C(C(=O)Nc3cccc(Cl)c3)C(=O)c3ccccc32)c(C)c1: 96 % of control
Cc1ccc([Si](O)(c2ccc(C)cc2)c2ccc(C)cc2)cc1: 100 % of control

Now take the following compound into account.
Per the record, COc1cc(C)c2cc(C)cc(C)c2n1 has T/C of 93 % of control

Origin of values: PubChem BioAssay AID248
